Biological target: Adenosylhomocysteinase (Oryctolagus cuniculus)
Assay: Inhibitory effect against S-adenosyl-L-homocysteine hydrolase of rabbit erythrocyte.
ENDPOINT: IC50

{"ENTRY SMILES": "Nc1ncnc2c1ncn2[C@@H]1C=C(CF)[C@@H](O)[C@H]1O", "TARGET DESC": "Adenosylhomocysteinase (Oryctolagus cuniculus)", "IC50": "> 37.7 µM"}
{"ENTRY SMILES": "C=CC1=C[C@@H](n2cnc3c(N)ncnc32)[C@H](O)[C@@H]1O", "TARGET DESC": "Adenosylhomocysteinase (Oryctolagus cuniculus)", "IC50": "> 38.5 µM"}
{"ENTRY SMILES": "COCC1=C[C@@H](n2cnc3c(N)ncnc32)[C@H](O)[C@@H]1O", "TARGET DESC": "Adenosylhomocysteinase (Oryctolagus cuniculus)", "IC50": "> 36 µM"}
{"ENTRY SMILES": "CC1=C[C@@H](n2cnc3c(N)ncnc32)[C@H](O)[C@@H]1O", "TARGET DESC": "Adenosylhomocysteinase (Oryctolagus cuniculus)", "IC50": "> 40.4 µM"}
{"ENTRY SMILES": "Nc1ncnc2c1ncn2[C@@H]1C=C(CCl)[C@@H](O)[C@H]1O", "TARGET DESC": "Adenosylhomocysteinase (Oryctolagus cuniculus)", "IC50": "> 35.4 µM"}

Now consider the entry below.
Query: IC50; subject: CSCC1=C[C@@H](n2cnc3c(N)ncnc32)[C@H](O)[C@@H]1O
> 34 µM
